Subject Of Test: Myc proto-oncogene protein (Homo sapiens) (UniProt P01106)
Sequence (P01106 whole entry, looked up): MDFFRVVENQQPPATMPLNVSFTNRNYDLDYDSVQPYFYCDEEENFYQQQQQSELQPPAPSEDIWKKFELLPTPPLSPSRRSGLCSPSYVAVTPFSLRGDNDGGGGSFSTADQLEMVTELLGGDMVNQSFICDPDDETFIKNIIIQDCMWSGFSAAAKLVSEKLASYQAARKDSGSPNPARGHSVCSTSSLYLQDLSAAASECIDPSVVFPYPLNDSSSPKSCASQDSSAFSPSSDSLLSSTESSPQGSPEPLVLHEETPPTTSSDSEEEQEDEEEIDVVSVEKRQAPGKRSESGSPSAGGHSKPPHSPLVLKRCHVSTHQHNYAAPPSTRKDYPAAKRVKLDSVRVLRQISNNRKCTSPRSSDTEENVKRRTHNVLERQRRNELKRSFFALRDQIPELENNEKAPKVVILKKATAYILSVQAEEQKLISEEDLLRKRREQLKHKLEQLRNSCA
Run Description: ATG_Myc_CIS: Attagene CIS-FACTORIAL HepG2 Assay for human Myelocytomatosis (Myc) Proto-Oncogene Transcription Factor (AID 2282990)
Cond: HepG2, Attagene cis-reporter transcription factor activity; actives raise or lower the signal
Activity calls are given as the source filed them. The calls were made as follows: active = hit-call score of the fitted dose curve at least 0.9, where 1 is the maximum; inactive = score below 0.9.
In this exercise, the only acceptable responses are active, inactive

// return assay outcome for "O=C(Cc1ccccc1)OCCc1ccccc1"
inactive

Just curious, what result did "CC[N+](CC)(CC)CC" get here?
inactive

Test call for this compound, please: "CN(N=O)C(N)=O"
inactive

# outcome recorded in this test, key = "CC(c1ccc(O)cc1)c1ccc(O)cc1"
inactive

Please indicate how the test categorized "Cc1cc(Cl)ccc1O" .
inactive

Next:
Just curious, what result did "Oc1cc(Cl)c(Cl)cc1Cl" get here?
active

Fill in: this test's call for "CCOc1cc(C=O)ccc1O" is ___
inactive

How did this test come out for "O=CCCl" ?
active

Record request — test call for "Cc1cccc(N=Nc2ccc(N(C)C)cc2)c1"
inactive

Just curious, what result did CC(C)[C@H](C(=O)OC(C#N)c1cccc(Oc2ccccc2)c1)c1ccc(OC(F)F)cc1 (some centres not stated) get here?
inactive

Status in this test for "CCCCN(CCCCO)N=O" ?
inactive

Which outcome was assigned to "O=[N+]([O-])c1ccc(Nc2ccccc2)cc1" in this test?
inactive

Dear all, I need the recorded test outcome for CCC(C)(C#N)N=NC(C)(C#N)CC (configuration not stated) , thank you.
inactive

Record request — test call for "O=NN1CCCCCCC1"
inactive

###

Read-out: Monocyte Chemoattractant Protein-1 (MCP1), CCL2 (gene 6347)
Run Description: BSK_4H_MCP1: BioMAP Diversity Plus: 4H Assay for Monocyte Chemoattractant Protein-1 (MCP1) Biomarker Activity (AID 2283018)
Cond: primary human endothelial cells (HUVEC); actives raise or lower the signal
The source made the active and inactive calls. How the source made its calls: active means hit-call score of the fitted dose curve at least 0.9, where 1 is the maximum; inactive means score below 0.9.
Please reply with one of these outcomes: class 1 = active, class 0 = inactive

Below, 5 molecules whose answers are already recorded.
Any idea what this test logged for OC(Cc1ccccc1Cl)(Cn1[nH]cnc1=S)C1(Cl)CC1 (centres undefined) ?
class 1

What did this assay record as the result for "CN(C)C(=S)S" ?
class 0

Please state the recorded outcome for this molecule: "Cc1c([N+](=O)[O-])c(C)c([N+](=O)[O-])c(C(C)(C)C)c1[N+](=O)[O-]"
class 1

Returns: the outcome recorded for "Cc1cc(C)cc(C)c1" in this assay.
class 0

State the result this test recorded for C#CCOC(=O)/C=C(C)/C=C/CC(C)CCCC(C)C (centres undefined) .
class 1

Consider now this further molecule.
Given "CCOC(=O)CCN(SN(C)C(=O)Oc1cccc2c1OC(C)(C)C2)C(C)C" , state the outcome it received in this test.
class 1

###

Read-out: Human Leukocyte Antigen - DR isotype (HLADR), HLA-DRA (gene 3122)
Run Description: BSK_3C_HLADR: BioMAP Diversity Plus: 3C Assay for Human Leukocyte Antigen - DR isotype (HLADR) Biomarker Activity (AID 2283019)
Cond: primary human endothelial cells (HUVEC); actives raise or lower the signal
The source made the active and inactive calls. How the source made its calls: active means hit-call score of the fitted dose curve at least 0.9, where 1 is the maximum; inactive means score below 0.9.
Response enum: active, inactive

Test call for this molecule, please: "CCN(CC)C(=O)C(Cl)=C(C)OP(=O)(OC)OC"
inactive

Can you look up the reported call for "Clc1cccc(Cl)c1Cl" for me?
inactive

For this molecule, state the assay outcome: "Cc1cc(Cl)ccc1N"
inactive

How did this test come out for CC(C)(COCC1CO1)COCC1CO1 (stereo not drawn) ?
active

// return assay outcome for C=CC(Cl)CCl (stereo not drawn)
inactive

What classification did "CCCCCCCCCCCCc1cccc(S(=O)(=O)O)c1" end up with in this test?
inactive

Tell me the assay call for "Cc1ccccc1OP(=O)(Oc1ccccc1C)Oc1ccccc1C" please.
active

Look up the recorded call for "Nc1ccc(N)cc1" in this test.
inactive

---
Which outcome was assigned to "Cc1c([N+](=O)[O-])c(C)c([N+](=O)[O-])c(C(C)(C)C)c1[N+](=O)[O-]" in this test?
active

# lookup: test call for "COCC(=O)N(c1c(C)cccc1C)[C@H](C)C(=O)OC"
inactive

Which outcome was assigned to "O=S(=O)(C(Cl)(Cl)Cl)C(Cl)(Cl)Cl" in this test?
active

Which outcome was assigned to "O=C(Cc1ccccc1)OCCc1ccccc1" in this test?
inactive

Short answer needed: outcome of this test for "N#Cc1cccnc1" ?
inactive

###

Subject Of Test: rat Peripheral-type Benzodiazepine Receptor (PBR), Tspo (gene 24230) (UniProt P16257)
Sequence (P16257 whole entry, looked up): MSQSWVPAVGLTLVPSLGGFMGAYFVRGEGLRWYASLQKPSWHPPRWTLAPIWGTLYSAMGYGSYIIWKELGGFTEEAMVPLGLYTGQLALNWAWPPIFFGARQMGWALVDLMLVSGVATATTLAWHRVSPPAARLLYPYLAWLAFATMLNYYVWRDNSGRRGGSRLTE
Run Description: NVS_MP_rPBR: NovaScreen (NVS) Membrane Protein Assay for rat Peripheral-type Benzodiazepine Receptor (PBR) (AID 2283335)
Procedure: NVS_MP_rPBR is a biochemical, single-readout assay that uses extracted gene-proteins from Rat kidney membranes in a tissue-based cell-free assay. Measurements were taken 1 hour after chemical dosing in a 48-well plate.NVS_MP_rPBR is one of one assay component(s) measured or calculated from the NVS_MP_rPBR assay. […] This assay endpoint, NVS_MP_rPBR, was analyzed in the positive analysis fitting direction relative to DMSO as the negative control and baseline of activity. […]
Results filed as inconclusive are left out. The source made the active and inactive calls. The calls were made as follows: active = hit-call score of the fitted dose curve at least 0.9, where 1 is the maximum; inconclusive = response in the unintended direction; inactive = score below 0.9.
Metric Name: AC50

Look over these answered cases.
// returns reported AC50 for input O=C1c2ccccc2C(=O)C1C(=O)C(c1ccccc1)c1ccc(Cl)cc1 (stereo not drawn)
inactive

// lookup AC50 for "Cc1ccccc1OP(=O)(Oc1ccccc1C)Oc1ccccc1C"
17100 nM (active)

Sample "CCCCOP(=O)(CCCC)OCCCC" — what was its AC50?
1620 nM (active)

Tell me the measured AC50 of "O=[N+]([O-])c1ccc(Nc2ccccc2)cc1" , please.
inactive

State the recorded AC50 for this entry: "Cc1ccc(OP(=O)(Oc2ccc(C)cc2C)Oc2ccc(C)cc2C)c(C)c1"
1060 nM (active)

What value of AC50 has been recorded for this entry: "Cc1cccc(OP(=O)(Oc2cccc(C)c2)Oc2cccc(C)c2)c1"
1260 nM (active)

Suppose we examine the compound "CC1(C)[C@H](C(=O)O[C@H](C#N)c2cccc(Oc3ccccc3)c2)[C@@H]1/C=C(\Cl)C(F)(F)F" ; what AC50 value has been reported?
inactive

Would you mind telling me what AC50 value was observed for "Cc1cc(C(C)(C)c2ccc(O)c(C)c2)ccc1O" ?
inactive

Form field: reported AC50 of "Cc1ccccc1OP(=O)(Oc1ccccc1)Oc1ccccc1"
284 nM (active)

AC50 lookup needed for "CCCCCCCCCCCCc1cccc(S(=O)(=O)O)c1" , thanks.
12400 nM (active)

---
For the compound shown here, "CCOP(=S)(OCC)SCS(=O)(=O)C(C)(C)C" , give the reported AC50.
2020 nM (active)

So what's the measured AC50 for this one? "CCOP(=S)(OCC)OP(=S)(OCC)OCC"
17800 nM (active)

Which AC50 is listed for CCOC(=O)C(SP(=S)(OC)OC)c1ccccc1 (stereo not drawn) ?
7410 nM (active)

###

Run Description: ATG_CRE_CIS: Attagene CIS-FACTORIAL HepG2 Assay for human cAMP Responsive Element (CRE) binding protein 3 (AID 2282926)
Cond: HepG2 CRE cis-reporter, Attagene multiplexed mRNA; actives raise or lower the signal
The source made the active and inactive calls. Rule for the calls: active = hit-call score of the fitted dose curve at least 0.9, where 1 is the maximum; inactive = score below 0.9.
Respond only with the outcome that fits, drawn from YES (active), NO (inactive)

Example entries begin here.
Write down the call the test reported for this compound. Item: "CNC(=O)N(C)c1nc2ccccc2s1"
NO

I would be grateful if you could indicate the recorded call for "OCC(c1ccc(Cl)cc1)c1ccc(Cl)cc1" .
NO

Could you kindly confirm the outcome this assay logged for CCOC(=O)OC1=C(c2cc(C)ccc2C)C(=O)NC12CCC(OC)CC2 (stereo not drawn) ?
NO

Continuing:
Fill in: this test's call for "Nc1cccnc1" is ___
NO

Outcome logged for "O=C=Nc1ccc(Cl)cc1" in this assay:
NO

Per the assay record, what outcome was assigned to "NC(=O)CCl" ?
NO

Called result for "Cc1ccc2nc3sc(=O)sc3nc2c1"
YES

Which outcome was assigned to "Cc1cccc(C)c1NC(=O)CN1CCCC1=O" in this test?
NO

Name the outcome recorded for "O=C(Cc1ccccc1)OCCc1ccccc1" in the assay.
NO

Identify the outcome logged in this assay for the compound shown: "O=C1C[C@@H]2OCC=C3CN4CC[C@]56c7ccccc7N1[C@H]5[C@H]2[C@H]3C[C@H]46"
NO

Look up the recorded call for "C=C(C)[C@@H]1CC=C(C=O)CC1" in this test.
NO

Outcome logged for CCCSP(=S)(OCC)Oc1ccc(Cl)cc1Cl (stereo not drawn) in this assay:
NO

Kindly provide the recorded test outcome for the following compound: "CC(C)(c1ccccc1)c1cc(-n2nc3ccccc3n2)c(O)c(C(C)(C)c2ccccc2)c1"
NO

###

Let's look at some compounds and their measured AC50.
Tested on: DIO3 (gene 1735)
Run Description: CCTE_GLTED_hDIO3: CCTE's human Deiodinase 3 (DIO3) Inhibition Assay, Great Lakes Toxicology and Ecology Division (GLTED) Lab (AID 2284055);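 also: potency is for inhibition seen as loss of released iodide signal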
Activity calls are given as the source filed them. How the source made its calls: active means hit-call score of the fitted dose curve at least 0.9, where 1 is the maximum; inconclusive means response in the unintended direction; inactive means score below 0.9.

Worked examples, 3 compounds total:
Sample "N#CCC#N" — what was its AC50?
58 µM (active)

Recorded AC50 for O=C1c2ccccc2C(=O)C1C(=O)C(c1ccccc1)c1ccc(Cl)cc1 (stereo not given) , please?
68.5 µM (active)

Using the record for "O=S1(=O)OC(c2cc(Br)c(O)c(Br)c2)(c2cc(Br)c(O)c(Br)c2)c2ccccc21" , report its AC50.
13 µM (active)

Others:
Form field: reported AC50 of "O=[N+]([O-])c1ccc(Cl)c([N+](=O)[O-])c1"
7.41 µM (active)

Record request: AC50 value, item "CC(=Cc1ccccc1)[N+](=O)[O-]"
64.6 µM (active)

These measurements were taken from PubChem BioAssay (EPA / NIEHS).
